src = patent US20240247080A1

TARGET OR SYSTEM: human GLP-1 receptor (human, UniProt P43220 24-463)
PROCEDURE SUMMARY: cell-based or functional assay
Starred links: 1 amine or outer side, 2 acyl side, 3 side chain; linkers in the order of their positions; H or OH if unused. Non-standard residues stand in square brackets, D forms with d. Groups on a side chain read outwards from the residue. No end group written: not given here. *: point of attachment. C20 diacid = O=C(O)CCCCCCCCCCCCCCCCCCC(=O)*; γGlu = O=C(O)[C@H](CCC(=O)[*:2])N[*:1]; εLys = N[C@@H](CCCCN[*:1])C(=O)[*:2]; Aib = CC(C)(N)C(=O)O
TEST READOUT: EC50 hGLP1R 0.5% hP (CreLuc) (nM)

>>> value("Y[Aib]EGTFTSDYSI[Aib]LEKQAQ[Aib]AFVEWLIK([γGlu-γGlu-γGlu-γGlu-γGlu-γGlu-C20 diacid])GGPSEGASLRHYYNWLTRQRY-NH2 (also: TFA salt) [Compound 305]")
0.29
>>> value("YXEGTFTSDYSIXLEKQAQXAFVEWLIKGGPSEGASLRHYYNWLTRXRY (Aib at 2, 13, 20; bHGln (beta-homo-L-glutamine) at 47; K28 side chain acylated with C20DA-gGlu-gGlu-gGlu-gGlu-gGlu-gGlu-eLys; C-terminal amide (NH2)) [Compound 277]")
0.19
>>> value("Y[Aib]EGTFTSDYSI[Aib]LEKQAQ[Aib]AFVEWLIK([εLys-γGlu-Glu-γGlu-γGlu-γGlu-C20 diacid])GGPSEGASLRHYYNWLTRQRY-NH2 (also: TFA salt) [Compound 290]")
0.13
